test: Inhibition of calf DNA polymerase alpha using DNA as substrate incubated for 60 mins in presence of […]; parameters: species or system Bos taurus
MEASUREMENT_LABEL: IC50 (µM)
API: value field is a number in µM; no unit string.

Tell me measured IC50 for CCCCCCCCCCCCCCCC[C@]1(O)C=C[C@H](O)[C@H]1C(=O)OC [PLAKEVULIN A] please.
137

Values compiled from ChEMBL document CHEMBL5584262.
